- Test system: E. coli WT DSM-1116
- ASSAY EXPLANATION: MIC, microbroth dilution susceptibility assay
- Assay type: cell-based
- TEST CONDITIONS: Escherichia coli, DSM1116; small panel, Tables 1a/1b; no visual growth after approx. 16 h; read-out: MIC E. coli WT DSM-1116
- Description: Cystobactamid derivatives synthesized were tested against relevant Gram negative and positive bacteria of clinical interest. Experimental procedures used for the biological characterization of the compounds are the same as previously described in WO 2016/082934. […]
PARAMETER MEASURED: MIC (µg/mL)
# value in µg/mL; strip the unit string

MOL: CC(C)Oc1c(NC(=O)c2ccc(NC(=O)[C@H](CC(N)=O)NC(=O)c3ccc(NC(=O)c4ccc([N+](=O)[O-])cc4)cc3)cc2)ccc(C(=O)Nc2ccc(C(=O)O)cc2)c1O
MIC, µg/mL: 0.13

Here is the next item to consider.
# input compound: CC(C)Oc1c(N)ccc(C(=O)Nc2ccc(C(=O)N[C@@H](CC(N)=O)C(=O)Nc3ccc(C(=O)Nc4ccc(C(=O)Nc5ccc(C(=O)O)cc5)c(O)c4OC(C)C)cc3)cc2)c1O ; wanted: its MIC
2

----------
// values below are reported MIC
- System: P. aeruginosa WT PA14
- ASSAY EXPLANATION: MIC, microbroth dilution susceptibility assay
- Format: cell-based
- TEST CONDITIONS: Pseudomonas aeruginosa, PA14, read-out: MIC P. aeruginosa WT PA14

MOL: CC(C)Oc1c(NC(=O)c2ccc(NC(=O)[C@H](CC(N)=O)NC(=O)c3ccc(C#Cc4ccc(C#N)cc4)cc3)cc2)ccc(C(=O)Nc2ccc(C(=O)O)cc2)c1O
RESULT: > 64 mg/L

MOL: CC(C)Oc1c(NC(=O)c2ccc(NC(=O)[C@H](CC(N)=O)NC(=O)c3ccc(NC(=O)c4ccccc4)cc3)cc2)ccc(C(=O)Nc2ccc(C(=O)O)cc2)c1O
RESULT: > 64 mg/L

MOL: CC(C)Oc1c(-n2cc(-c3ccc(NC(=O)[C@H](CC(N)=O)NC(=O)c4ccc(NC(=O)c5ccc(C#N)cc5)cc4)cc3)nn2)ccc(C(=O)Nc2ccc(C(=O)O)cc2)c1O
RESULT: 8 mg/L

Here is the next item to consider.
# input compound: CC(C)Oc1c(NC(=O)c2ccc(NC(=O)[C@H](CC(N)=O)NC(=O)c3ccc(NC(=O)c4ccc(C5(C(F)(F)F)N=N5)cc4)cc3)cc2)ccc(C(=O)Nc2ccc(C(=O)O)cc2)c1O ; wanted: its MIC
> 64 mg/L

----------
- Test system: S. aureus Newman
- ASSAY EXPLANATION: MIC, microbroth dilution susceptibility assay
- Type: cell-based
- TEST CONDITIONS: Staphylococcus aureus, NEWMAN; small panel, Tables 1a/1b; read-out: MIC S. aureus Newman
// values below are reported MIC
# value in µg/mL; strip the unit string

MOLECULE: CC(C)Oc1c(NC(=O)c2ccc(NC(=O)[C@H](CC(N)=O)NC(=O)c3ccc(NC(=O)c4ccc(C#N)cc4)cc3)cc2)ccc(C(=O)Nc2cccc(C(=O)O)c2)c1O [Compound 90]
ASSAYED SYSTEM: S. aureus Newman
PARAMETER MEASURED: MIC
VALUE UNIT: µg/mL
NUMBER: 2

Here is the next item to consider.
# input molecule: CC(C)Oc1c(NC(=O)c2ccc(NC(=O)[C@H](CC(N)=O)NC(=O)c3ccc(NC(=O)c4ccc(F)cc4)cc3)cc2)ccc(C(=O)Nc2ccc(C(=O)O)cc2)c1O [Compound 39] ; wanted: its MIC
2

The origin of these recorded values is patent US11034648B2.
